System Tested: T1, RBFOX1 RRM RbFoxmut (Fox-RRM*) (Homo sapiens, UniProt Q9NWB1 109-208, R118D;E147R;N151S;E152T)
T1 sequence: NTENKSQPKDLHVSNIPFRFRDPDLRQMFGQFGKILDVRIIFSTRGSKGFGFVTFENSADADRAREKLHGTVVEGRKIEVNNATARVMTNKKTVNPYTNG
Protocol: EMSA; HiTS-Eq, 1 nM pool, 10 min; buffer printed only for the single-RNA assays: 10 mM Tris pH 7.5, 150 mM NaCl, 3.4 mM EDTA, 0.001% NP-40, 30 C
Details: tags: His6 N-terminal (pET28a); label: 5' 32P
In all, about 16,000 sequences were measured (“ka relative to ugcaugu”: median about 0.096, highest 2% from about 0.35 on). The list comes from a sample in which the highest values are over-represented; it also holds close analogues and randomly drawn sequences.
binders and their reported binding signal
Readout Type: binding signal

* CGUAUCG (DNA:RNA) RNA: GGGAGACCGGAAUUCAGAUUGUCCCGUAUCGUUAAAUCCCGUCGUAGCCACCA DNA 1: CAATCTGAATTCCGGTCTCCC DNA 2: TGGTGGCTACGACGGGATT | 0.263 KA relative to UGCAUGU
* UGAUAUC (DNA:RNA) RNA: GGGAGACCGGAAUUCAGAUUGUCCUGAUAUCUUAAAUCCCGUCGUAGCCACCA DNA 1: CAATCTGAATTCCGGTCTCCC DNA 2: TGGTGGCTACGACGGGATT | 0.145 KA relative to UGCAUGU
* GGAUUGU (DNA:RNA) RNA: GGGAGACCGGAAUUCAGAUUGUCCGGAUUGUUUAAAUCCCGUCGUAGCCACCA DNA 1: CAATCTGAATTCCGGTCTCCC DNA 2: TGGTGGCTACGACGGGATT | 0.39 KA relative to UGCAUGU
* GUCCGGA (DNA:RNA) RNA: GGGAGACCGGAAUUCAGAUUGUCCGUCCGGAUUAAAUCCCGUCGUAGCCACCA DNA 1: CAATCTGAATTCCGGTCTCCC DNA 2: TGGTGGCTACGACGGGATT | 0.0725 KA relative to UGCAUGU

// provenance: paper PMC9911399
